Target: MDR1 (P-glycoprotein, ABCB1) (Homo sapiens)
Experiment: in vitro
Settings: l5178y
Description: Inhibition of human recombinant MDR1 expressed in mouse L5178Y cells assessed as inhibition of rhodamine-123 efflux at 10^-4 M preincubated for 10 mins measured after 20 mins by FACS analysis
assay metric: inhibition at 20 min, 100 µM (%)
Answers are plain numbers, in %.

Query: State the recorded inhibition at 20 min, 100 µM for this entry: C=C[C@H]1C[N@@]2CC[C@H]1C[C@@H]2[C@@H](O)c1ccnc2ccc(OC)cc12
Reply: 21.1

###

Molecular target: MDR1 (P-glycoprotein, ABCB1) (Homo sapiens)
Experiment: Inhibition of human recombinant MDR1 expressed in mouse L5178Y cells assessed as inhibition of rhodamine-123 efflux at 10^-5 M preincubated for 10 mins measured after 20 mins by FACS analysis
Format: cell-based
Settings: mouse L5178Y cells expressing human recombinant MDR1, probe rhodamine-123
Is inhibition at 20 min, 10 µM at least 8%? Then Condition met. If not, Condition not met.

CN(C)C(=O)C(CCN1CCC(O)(c2ccc(Cl)cc2)CC1)(c1ccccc1)c1ccccc1 [LOPERAMIDE] = Condition not met
CCC(C)N1C(=O)S/C(=C\c2ccc(-c3cc(C(=O)O)ccc3Cl)o2)C1=O (stereo not drawn) = Condition not met
CCOC(=O)C1=C(COCCN)NC(C)=C(C(=O)OC)C1c1ccccc1Cl (stereo not drawn) = Condition met
CC[C@H](C)N1C(=O)S/C(=C/c2ccc(-c3cc(C(=O)O)ccc3Cl)o2)C1=O = Condition not met
COc1ccc(CCN2CCC(Nc3nc4ccccc4n3Cc3ccc(F)cc3)CC2)cc1 = Condition met
CCN(CC)CCOc1ccc(-c2cc(=O)c3ccccc3n2C)cc1 = Condition not met

Now for another entry.
Query: Could you please find out whether CC[C@H]1CCc2nc(SCc3ccc(C(=O)O)cc3)c(C#N)c(C(F)(F)F)c2C1 has inhibition at 20 min, 10 µM that meets 8% or exceeds it?
Reply: Condition not met

###

Molecular target: MDR1 (P-glycoprotein, ABCB1) (Homo sapiens)
Assay: in vitro
Details: mouse L5178Y cells expressing human recombinant MDR1, probe rhodamine-123
Is inhibition at 20 min, 100 µM at least 20%? Then fulfilled. If not, not fulfilled.

O=C1CCc2ccc(OCCCCN3CCN(c4cccc(Cl)c4Cl)CC3)cc2N1 [ARIPIPRAZOLE] = fulfilled
CCN(CC)CCCN(c1ccccc1)C1Cc2ccccc2C1 [APRINDINE] = not fulfilled
CCOc1cc(CC(=O)N[C@@H](CC(C)C)c2ccccc2N2CCCCC2)ccc1C(=O)O [REPAGLINIDE] = fulfilled

Query: Could you please find out whether CCC(C)N1C(=O)S/C(=C\c2ccc(N3CCCC3)o2)C1=O (stereo unspecified) has inhibition at 20 min, 100 µM that meets 20% or exceeds it?
Reply: not fulfilled

Query: Could you please find out whether CCOC(=O)c1cn(C2CC2)c2cc(N3CCC4=C(C3)/C(=N/OC)C(C)CS4)c(N)cc2c1=O (stereo unspecified) has inhibition at 20 min, 100 µM that meets 20% or exceeds it?
Reply: not fulfilled

Query: Could you please find out whether O=C1NC(=O)/C(=C/c2ccc(-c3cc(C(=O)O)ccc3Cl)o2)S1 has inhibition at 20 min, 100 µM that meets 20% or exceeds it?
Reply: not fulfilled

###

Biological target: Quinolone resistance protein NorA (Staphylococcus aureus) (UniProt P0A0J7)
Details: SA-1199B, at 50 µM
Description: Inhibition of norA-mediated ethidium bromide efflux in Staphylococcus aureus SA-1199B harboring grlA A116E mutant at 50 uM after 5 mins by fluorometric analysis
Is inhibition at least 80%? Then MET. If not, NOT MET.

CCOC(=O)C1=C(COCCN)NC(C)=C(C(=O)OC)C1c1ccccc1Cl (stereo not given) = NOT MET

Now for another entry.
Query: Could you please find out whether CC(C)(C)c1ccc(C(=O)CCCN2CCC(OC(c3ccccc3)c3ccccc3)CC2)cc1 has inhibition that meets 80% or exceeds it?
Reply: MET
